Assign IC50 to each entry below.
Target: Tyrosine-protein phosphatase non-receptor type 1 [1-298] (Homo sapiens)
Sequence (P18031 1-298): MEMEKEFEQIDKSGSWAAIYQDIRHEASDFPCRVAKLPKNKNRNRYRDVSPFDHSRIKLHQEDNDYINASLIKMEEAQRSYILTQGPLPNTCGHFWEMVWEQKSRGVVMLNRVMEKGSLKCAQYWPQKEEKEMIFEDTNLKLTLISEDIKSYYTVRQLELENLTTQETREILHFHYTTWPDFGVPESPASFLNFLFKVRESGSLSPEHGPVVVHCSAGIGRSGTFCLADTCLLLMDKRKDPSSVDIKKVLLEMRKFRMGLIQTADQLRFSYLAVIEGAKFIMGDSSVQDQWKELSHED
Write down the numeric answer in µM and omit the unit.

**Q:** Assign IC50 to the following record: CC(C)CCOc1ccc(-c2ccc(CC(Cc3ccc(C(F)(F)P(=O)(O)O)cc3)(c3ccccc3)n3nnc4ccccc43)cc2)cc1P(=O)(O)O (stereo not given)
**A:** 0.006

**Q:** Assign IC50 to the following record: O=P(O)(O)C(F)(F)c1ccc(CC(Cc2ccc(-c3ccccc3)cc2)(c2ccccc2)n2nnc3ccccc32)cc1 (stereo not given)
**A:** 0.038

**Q:** Assign IC50 to the following record: COCOC(CC(C)C)c1ccc2cc(-c3ccc(CC(Cc4ccc(C(F)(F)P(=O)(O)O)cc4)(c4ccccc4)n4nnc5ccccc54)cc3)cc(P(=O)(O)O)c2n1 (stereo not given)
**A:** 0.011

**Q:** Assign IC50 to the following record: COc1ccc(-c2ccc(CC(Cc3ccc(C(F)(F)P(=O)(O)O)cc3)(c3ccccc3)n3nnc4ccccc43)cc2)cc1P(=O)(O)O (stereo not given)
**A:** 0.01

**Q:** Assign IC50 to the following record: CC(C)CC(O)c1ccc2cc(-c3ccc(CC(Cc4ccc(C(F)(F)P(=O)(O)O)cc4)(c4ccccc4)n4nnc5ccccc54)cc3)cc(P(=O)(O)O)c2n1 (stereo not given)
**A:** 0.006
